Assay comment: parental Ba/F3 cell viability inhibition, counter-screen for JAK2V617F inhibitor project, murine pro-B, CellTiter-Glo luminescence (AID 1486);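 further: 0% = DMSO wells and 100% = JAK Inhibitor I control wells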
Condition: CellTiter-Glo ATP luminescence, at 5.6 µM
Hit rate of the full screen: of about 220,000 compounds, about 2,400 (1.1%) were called active.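 How the source made its calls: active means inhibition above a per-campaign cutoff, the mean inhibition of all tested compounds plus 3 SD (cut at about 27% in these data); inactive means the rest.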 This excerpt belongs to a sample that is enriched for actives.
Select the matching outcome among active, inactive

See these solved cases before continuing.
Name the outcome recorded for "Cc1cc(C)cc(OCC(=O)NNC(=O)CCN2C(=O)c3ccccc3C2=O)c1" in the assay.
inactive

Dear all, I need the recorded test outcome for "CCOC(=O)CN1C(=O)N[C@@H](c2ccc(Br)cc2)C(C(C)=O)=C1C" , thank you.
inactive

Just curious, what result did "COC(=O)c1noc(C)c1-c1ccnn1C(=O)c1ccc(Cl)cc1" get here?
inactive

Further cases:
// outcome(item) with item = "CN(C)CCCNC(=O)/C=C/c1ccc(OCc2c(F)cccc2Cl)cc1"
inactive

Short answer needed: outcome of this test for "CCN1CCN(CCNC(=O)c2ccc(/C=C3/Sc4ccccc4N(Cc4cccc(C)c4)C3=O)cc2)CC1" ?
inactive

What outcome does the record of this test show for Cc1c(Cl)c([N+](=O)[O-])nn1CC(=O)NCC1CCCO1 (stereo not drawn) ?
inactive

Which result was noted for this molecule in the test: "O=C(Nc1ccc(Cl)cc1)N1CCc2[nH]c3ccccc3c2C1"
inactive

State the result this test recorded for "CC1=NOC(=O)/C1=C\c1ccccc1" .
inactive

----------
Assay comment: parental Ba/F3 cell viability inhibition, counter-screen for JAK2V617F inhibitor project, murine pro-B, CellTiter-Glo luminescence (AID 1486);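 further: 0% = DMSO wells and 100% = JAK Inhibitor I control wells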
Condition: CellTiter-Glo ATP luminescence, at 5.6 µM, stronger effect = higher value
Out of some 220,000 compounds screened, about 2,400 (1.1%) were called active. The sample holds actives, similar compounds and a random draw of the others, so the mix is not that of the screen.
Assignment: determine reported inhibition for the given molecules.
Answers are plain numbers, in %.

Observe how each entry below is paired with its result.
Fill in: inhibition of "CCCCNc1nc2c(c(=O)n(C)c(=O)n2C)n1Cc1cccc(OC)c1" is ___
48.4

For the molecule shown here, "Cc1cc(C)n(-c2nc(C(F)(F)F)nc3ccccc23)n1" , give the reported inhibition.
7.14

Please report the recorded inhibition for COC(=O)c1ccc(/C=N/N2C(C)CCCC2C)cc1 (stereo unspecified) .
-0.91

Item "Cc1ccc(OCC(=O)N/N=C/c2ccncc2)cc1" has what recorded inhibition?
-0.78

Value lookup for inhibition; key = "Cc1cc(CNC(=O)c2cccc([N+](=O)[O-])c2)c2ccccc2n1"
-2.87

List inhibition for every entry below, keeping the order given.
1. COc1ccc(-c2nn(C)c(=O)c3ccccc23)cc1NC(=O)COc1ccccc1
2. COc1ccc(Nc2cc(=O)n(-c3ccccc3)c3c2c(=O)n(C)c(=O)n3C)cc1
3. Cc1ccc(OCC(=O)Nc2ccc(S(=O)(=O)Nc3ccccn3)cc2)cc1
4. CC(C)c1cc(CN2CCOCC2)cc(C(C)C)c1O
5. C=CCNC(=S)NNC(=O)c1cc(Cl)ccc1OC
6. Cc1cc(C)cc(OCC(=O)Nc2ccc(S(=O)(=O)Nc3ccccn3)cc2)c1
7. Cc1ccc(OCC(=O)N/N=C\c2ccco2)c(C)c1
8. COc1cccc(C(=O)Nc2ccc(NC(=O)c3ccco3)cn2)c1

1. -0.19
2. 4.99
3. 0.56
4. -1.01
5. 2.83
6. -1.55
7. -2.78
8. -2.07

----------
Assay comment: parental Ba/F3 cell viability inhibition, counter-screen for JAK2V617F inhibitor project, murine pro-B, CellTiter-Glo luminescence (AID 1486);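 further: 0% = DMSO wells and 100% = JAK Inhibitor I control wells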
Condition: CellTiter-Glo ATP luminescence, at 5.6 µM, stronger effect = higher value
Out of some 220,000 compounds screened, about 2,400 (1.1%) were called active. The entries come from a sample that favours actives as a whole.
Please respond with reported inhibition for every item in the list.
Give bare numbers, in %.

Sample records with inhibition:
Would you mind telling me what inhibition value was observed for "COc1ccc(Nc2cc(C)nc(-n3nc(C)cc3C)n2)cc1" ?
78

// query inhibition value for entry "COc1ccc(OCC(=O)NNC(=O)c2cccc(C)c2)cc1"
1.18

Sample "CSc1ccc(C#N)cc1NC(=O)c1ccc(Cl)cc1" — what was its inhibition?
1.1

Give its inhibition value. Item: Cc1ccc(CN2CCN(Cc3ccccc3-c3ccco3)CC2CCO)o1 (stereo not drawn)
6.27

What measured inhibition goes with "Cc1cc(N/N=C\c2ccc(Br)cc2)nc(-n2nc(C)cc2C)n1" ?
0.24

// for each compound in input: emit inhibition
1. CN(NC(=O)c1ccccc1F)c1nc(C(F)(F)F)nc2ccccc12
2. Nc1ccc(N=Nc2ccccc2Cl)c(N)n1
3. COC(=O)C1=C(N)Oc2c(oc(CO)cc2=O)C1c1c(F)cccc1Cl (stereo not drawn)
4. CN(Cc1ccccc1)Cc1ccccc1F

1. 73.9
2. -6.75
3. 1.36
4. 10.4

----------
Assay comment: parental Ba/F3 cell viability inhibition, counter-screen for JAK2V617F inhibitor project, murine pro-B, CellTiter-Glo luminescence (AID 1486);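 further: 0% = DMSO wells and 100% = JAK Inhibitor I control wells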
Condition: CellTiter-Glo ATP luminescence, at 5.6 µM
About 2,400 (1.1%) of roughly 220,000 compounds were called active.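 How the source made its calls: active means inhibition above a per-campaign cutoff, the mean inhibition of all tested compounds plus 3 SD (cut at about 27% in these data); inactive means the rest.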 The entries come from a sample that favours actives as a whole.
Use one of these outcomes when replying: true = active, false = inactive

Solved cases below.
For "CN(C)c1ccc(/C=N/N(Cc2ccccc2)c2ccccc2)cc1" , what call appears in the results of this test?
false

Assay result, entry "O=C1N/C(=C/c2cccn2-c2ccccc2)C(=O)N1c1cccc(Cl)c1" — outcome?
true

Recorded call for "CCOC(=O)c1ccc(NC(=S)N2CCCC2)cc1" ?
false

Please look at the following compound next.
What did this assay record as the result for "CSc1ccc(/C=N/NC(=O)c2cccc(Cl)c2)cc1" ?
false

----------
Assay comment: parental Ba/F3 cell viability inhibition, counter-screen for JAK2V617F inhibitor project, murine pro-B, CellTiter-Glo luminescence (AID 1486);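 further: 0% = DMSO wells and 100% = JAK Inhibitor I control wells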
Condition: CellTiter-Glo ATP luminescence, at 5.6 µM, stronger effect = higher value
Among all 220,000 compounds or so, about 2,400 (1.1%) were called active. The full list was thinned out, with actives kept by preference.
Can you tell me inhibition for the items I'm about to list?

Query (compound): "CN(C)C(=O)c1cccn(Cc2cccc(C(F)(F)F)c2)c1=O" ; field requested: inhibition
1.53% (inactive)

Give inhibition for each of the items listed below.
1. CCOC(=O)c1ccc(NC(=O)Cn2cnc3cc(C)c(C)cc32)cc1
2. COc1ccc(C(=O)C[n+]2ccc(N)c(C)c2C)cc1

1: 58.4% (active); 2: 74.6% (active)

----------
Assay comment: parental Ba/F3 cell viability inhibition, counter-screen for JAK2V617F inhibitor project, murine pro-B, CellTiter-Glo luminescence (AID 1486);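 further: 0% = DMSO wells and 100% = JAK Inhibitor I control wells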
Condition: CellTiter-Glo ATP luminescence, at 5.6 µM, stronger effect = higher value
Out of some 220,000 compounds screened, about 2,400 (1.1%) were called active. The sample holds actives, similar compounds and a random draw of the others, so the mix is not that of the screen.
Assay readout: inhibition (%)
Answers are plain numbers, in %.

Below: 5 compounds and their reported inhibition.
Which inhibition value is on record for "CCN(CC)CCCN=Cc1c(O)n(-c2ccc(C)cc2)c(=O)c2ccccc12" ?
1.41

Could you tell me which inhibition is on file for "CC(=O)NC(=S)Nc1ccc(NC(=S)NC(=O)c2ccc([N+](=O)[O-])cc2)cc1" ?
-2.36

Form field: reported inhibition of "Cc1c(C(=O)Nc2cccc(Cl)c2)cn2c(nc3ccccc32)c1C#N"
2.67

Which inhibition is reported for this compound? "COc1cccc(OC)c1C(=O)Nc1ccc(N2CCCCC2)cc1"
9.75

Which measured inhibition value corresponds to "Cc1cccc(NC(=O)c2sc(-c3ccccc3)nc2-c2ccc([N+](=O)[O-])cc2)c1" ?
2.68

Working through the 2 compounds below one at a time, give inhibition for each.
1. Cc1ccc2c(c1)C(O)(CC(=O)c1cccc(-n3cccc3)c1)C(=O)N2 (stereo unspecified)
2. Cc1cc([N+](=O)[O-])ccc1NC(=O)c1ccc(NC(=O)C(C)C)cc1

[9.56, 6.88]

For every item below, please supply its inhibition.
1. COC(=O)C1CCN(C(=O)c2cc(=O)[nH]c3ccccc23)CC1
2. COCCCNC(=O)Cn1cc(/C=C(\C#N)C(=O)N2CCN(c3ccccc3)CC2)c2ccccc21
3. CC1=C(C)CC(C(=O)NNC(=O)c2csc3c2CCC(C(C)(C)C)C3)C(C(=O)O)C1 (stereo unspecified)
4. CC1CCN(c2c(NCc3ccc(C(=O)NCc4ccccc4)cc3)c(=O)c2=O)CC1
5. COc1ccc(-c2csc(NC3OC(=O)c4ccccc43)n2)cc1 (stereo unspecified)
6. Oc1ccc2ccccc2c1C=Nc1ccccc1

1. 5.12
2. 2.71
3. 4.65
4. -0.24
5. -1.11
6. 3.24

// input: 8 compounds below; output: inhibition for each
1. Oc1ccc2ccccc2c1N=Nc1nccs1
2. CCCCC(NC(=O)c1cccc(Br)c1)C(=O)O (stereo unspecified)
3. COc1ccc(C(=O)Nc2nc(-c3ccc(OC)cc3)c(-c3ccc([N+](=O)[O-])cc3)s2)cc1
4. COc1cccc(C(=O)Nc2ccc(N3CCCC3)cc2)c1
5. COc1ccc2c(c1OC)C(=O)OC2Nc1nc(-c2ccccc2)cs1 (stereo unspecified)
6. COC(=O)C(NC(=O)c1ccc(OC)cc1)(Nc1ncc(S(=O)(=O)c2ccc([N+](=O)[O-])cc2)s1)C(F)(F)F (stereo unspecified)
7. CCCCN(C(=O)c1ccc(OC(F)(F)F)cc1)c1c(N)n(CCC)c(=O)[nH]c1=O
8. Cc1nnc(CN(C)Cc2cn[nH]c2-c2ccc(-c3ccccc3)cc2)o1

1: 101; 2: 0.6; 3: 61.3; 4: 45.8; 5: 40.2; 6: -1.49; 7: 3.34; 8: 3.87

Cited source: PubChem BioAssay AID1486
